Quick reference for Potency among some molecules
# PROTOCOL DETAILS: qHTS Assay for Modulators of miRNAs and/or Inhibitors of miR-21; also: potency is read from the fitted curve at half-maximal effect; nearly all actives have a fitted effect of over 55% in size
# ASSAY CONDITIONS: HeLa miR-21-FLuc reporter, luciferase luminescence, 48 h; actives lower the signal
Screen size: about 340,000 compounds; about 3,300 (0.97%) were called active. Not shown: some 9% with an inconclusive outcome. The list shows a part of the results.

The cases that follow already have their Potency on record.
In [3]: df
Out[3]:
                                   molecule  measurement_type              value
0           c1ccn(-c2ccc(-c3ccn[nH]3)cc2)c1           Potency   6.56 µM (active)
1        COc1ccc(/C=N/N=C(\N)c2nonc2N)cc1OC           Potency   7.36 µM (active)
2  CCc1ccc2oc(-c3cc(N=Cc4cccc(OC)c4O)ccc3O)nc2c1           Potency  0.656 µM (active)
3            Cc1ccc(CNC(=O)Nc2ccccc2)c(C)c1           Potency   1.65 µM (active)
4  Nc1c(Cl)cc2c(c1Oc1ccccc1)C(=O)c1ccccc1C2=O           Potency   4.14 µM (active)

State the recorded Potency for this entry: `Cc1ccc(Nc2nc(/N=C/N(C)C)n[nH]2)cc1C`
7.36 µM (active)

State the recorded Potency for this entry: `COc1ccc(CNC(=S)N/N=C(/C)c2ccccc2)cc1`
11.7 µM (active)

State the recorded Potency for this entry: `O=C(Nc1cc2c(cc1Cl)OCCCO2)c1ccc(F)cc1`
3.69 µM (active)

State the recorded Potency for this entry: `COc1ccc(O)c(/C=N/N2CCCCC2)c1`
5.21 µM (active)

State the recorded Potency for this entry: `Cc1cccc(NC(=O)c2ccc(OC3CSC3)cc2)c1`
2.93 µM (active)

State the recorded Potency for this entry: `O=C(Cc1c(Cl)cccc1Cl)OCc1ccccn1`
18.5 µM (active)

State the recorded Potency for this entry: `COc1ccc(N=Nc2cc(C)ccc2O)cc1`
0.521 µM (active)

State the recorded Potency for this entry: `O=C(NCc1csc(-c2cccs2)n1)C1CCCCC1`
5.21 µM (active)

State the recorded Potency for this entry: `CCOC(=O)c1cn2nc(Oc3ccccc3)ccc2n1`
5.85 µM (active)

State the recorded Potency for this entry: `N/C(=N\OC(=O)COc1ccc2ccccc2c1Br)c1ccncc1`
16.5 µM (active)

State the recorded Potency for this entry: `COc1ccccc1C(=O)NC(=O)Nc1cccc(Cl)c1`
0.736 µM (active)

State the recorded Potency for this entry: `COc1ccc(N=Nc2c(C)n[nH]c2C)cc1`
10.4 µM (active)

State the recorded Potency for this entry: `O=C(Nc1ccc(Cl)cc1)OCc1ccccn1`
5.85 µM (active)

State the recorded Potency for this entry: `COCCN=C1NN=C(c2ccc(C)c([N+](=O)[O-])c2)CS1`
4.14 µM (active)

State the recorded Potency for this entry: `COc1cccc2cc(CC(=O)c3ccc(C)cc3C)c(=O)oc12`
11.7 µM (active)

State the recorded Potency for this entry: `CC(=O)Nc1ccc(C(=O)NCCc2ccccc2)cc1`
7.36 µM (active)

State the recorded Potency for this entry: `Cc1ccc(COc2ccc(-c3nnco3)cc2)cc1`
4.14 µM (active)
